// data source = the RepoRT retention time repository

Assay: HILIC, Merck SeQuant ZIC-HILIC, 25 °C, 0.25 mL/min; A: water + 16 mM ammonium formate; B: acetonitrile + 0.1% formic acid, pH 3; gradient (min/%B) 0/97 2/97 10/70 15/10 17/10 18/97 25/97
Conditions: stereoisomer not certain
Label key: MET means LC retention time under 10 min; NOT MET means LC retention time of 10 min or more.

// known answers, use as guide
COMPOUND	GROUP_LABEL
O=c1[nH]c(=O)c2[nH]c(=O)[nH]c2[nH]1 [URATE]	NOT MET
NC(C(=O)O)C(O)C(O)C(O)CO (stereo unspecified) [GLUCOSAMINATE]	NOT MET
COc1ccc2[nH]cc(CCNC(C)=O)c2c1	MET
CC(=O)C1(O)CCC2C3CCC4=CC(=O)CCC4(C)C3CCC21C (stereo unspecified) [17a-Hydroxyprogesterone]	MET

Alright, here's another compound for you.
Request: API: query returns whether the compound falls strictly under 10 min in LC retention time. Query: NC(CCOC(=O)CCC(=O)O)C(=O)O (stereo unspecified)
Result: NOT MET

====

Assay: HILIC, Merck SeQuant ZIC-HILIC, 25 °C, 0.25 mL/min; A: water + 16 mM ammonium formate; B: acetonitrile + 0.1% formic acid, pH 3; gradient (min/%B) 0/97 2/97 10/70 15/10 17/10 18/97 25/97
Settings: stereoisomer not certain
Binary call on LC retention time: T from 10 min upward, F beneath that.

Request: Check this compound for LC retention time at or above 10 min: CCCCCCCCCCCCCCC=COCC(O)COP(=O)([O-])OCC[N+](C)(C)C (stereo not given) [C16_PlasmLPC]
Result: T

Request: Now consider CC(=O)c1ccc(O)cc1O [2'-4'-DIHYDROXYACETOPHENONE] .
Result: F

Request: Now consider Cc1ncc(CO)c(C=O)c1O [PYRIDOXAL] .
Result: F

Request: Now consider NC(=O)CC[C@H](N)C(=O)O [L-Glutamine] .
Result: T

Request: Now consider NCC(O)c1ccc(O)c(O)c1 (stereo not given) [NORADRENALINE] .
Result: T

====

Assay: HILIC, Merck SeQuant ZIC-HILIC, 25 °C, 0.25 mL/min; A: water + 16 mM ammonium formate; B: acetonitrile + 0.1% formic acid, pH 3; gradient (min/%B) 0/97 2/97 10/70 15/10 17/10 18/97 25/97
Settings: stereoisomer not certain
Structures can show the parent of a compound that is named as a salt.
Binary call on LC retention time: criterion met from 2 min upward, criterion not met beneath that.

MOLECULE	GROUP_LABEL
O=C(O)c1ccc(O)c(O)c1 [3-4-DIHYDROXYBENZOATE]	criterion met
C[N+](C)(C)CCOP(=O)(O)O	criterion met
O=C([O-])C(O)c1ccccc1 (centres undefined) [MANDELATE]	criterion met
O=C(O)CCCCCCCCCO [10-HYDROXYDECANOATE]	criterion not met
Nc1ccccc1O	criterion met
CC12CCC(=O)C=C1CCC1C2CCC2(C)C1CCC2(O)C(=O)CO (centres undefined) [CORTEXOLONE]	criterion not met
CC(=CCC1=C(C)C(=O)c2ccccc2C1=O)CCCC(C)CCCC(C)CCCC(C)C (centres undefined)	criterion not met
C[S+](CCC(N)C(=O)[O-])CC1OC(n2cnc3c(N)ncnc32)C(O)C1O (centres undefined)	criterion met

Alright, here's another molecule for you.
Request: Check this molecule for LC retention time at or above 2 min: CN1C2CC(OC(=O)C(CO)c3ccccc3)CC1C1OC12 (single isomer, unassigned; (-)) [(-)-Scopolamine hydrochloride]
Result: criterion met
